Data credit: patent US9850219B1

Entries and their measured IC50 follow.
test system: H441GL; experiment: Cytotoxicity, sulforhodamine B (SRB) assay, H441GL; format: cell-based, Human; settings: 48 h, NA indicates no activity
Reply numerically in µM, unit not repeated.

A selection of reference data follows.
>  <Compound>
COCCOCCOCCOCCOCCOCCOCCOCCOCCOCCOCCOCCN1CCN(CCCN2c3ccccc3Sc3ccc(C(F)(F)F)cc32)CC1

>  <Assayed System>
H441GL

>  <IC50 (µM)>
10.5

$$$$
>  <Compound>
COCCOCCOCCOC(=O)N1CCN(CCCN2c3ccccc3Sc3ccc(Cl)cc32)CC1 [Compound 5-1a, NDP-CO—O—[CH2CH2O]3—CH3]

>  <Assayed System>
H441GL

>  <IC50 (µM)>
16

$$$$
>  <Compound>
COCCOCCOCCOCCOCCOCCOCCOCCOCCOCCOCCOCCOCCOCCOCCOCCOC(=O)N1CCN(CCCN2c3ccccc3Sc3ccc(Cl)cc32)CC1 [Compound 5-4a, NDP-CO—O—[CH2CH2O]16—CH3]

>  <Assayed System>
H441GL

>  <IC50 (µM)>
3

$$$$

Now for the compound whose IC50 we want.
Can you look up the measured IC50 of COCCOCCOCCOCCOCCOCCOCCOCCOCCOCCOCCOCCOC(=O)N1CCN(CCCN2c3ccccc3Sc3ccc(C(F)(F)F)cc32)CC1 [Compound 5-3b, NDT-CO—O—[CH2CH2O]12—CH3] for me?
1.6

---

tested on: H441GL cells; test: Study 1: tumor size in mouse lung cancer model; type: in vivo, NOD/SCID mice; details: Study 1, 5 mg/kg/day, 5 days/week, i.p.; Week 9
Classification field: MET = Tumor Size [Fold Change from Week 3 (Mean ± SD, n = 4)] Week 9 at or over 30 Fold Change; NOT MET = Tumor Size [Fold Change from Week 3 (Mean ± SD, n = 4)] Week 9 under 30 Fold Change.

Worked set:
>  <Compound>
COCCOCCOCCOC(=O)N1CCN(CCCN2c3ccccc3Sc3ccc(C(F)(F)F)cc32)CC1 [Compound 5-1b, NDT-CO—O—[CH2CH2O]3—CH3]

>  <Assayed System>
H441GL cells

>  <Class Name>
NOT MET

$$$$
>  <Compound>
COCCOCCOCCOCCOCCOCCOC(=O)N1CCN(CCCN2c3ccccc3Sc3ccc(C(F)(F)F)cc32)CC1 [Compound 5-2b, NDT-CO—O—[CH2CH2O]6—CH3]

>  <Assayed System>
H441GL cells

>  <Class Name>
NOT MET

$$$$
>  <Compound>
COCCOCCOCCOCCOCCOCCOCCOCCOCCOCCOCCOCCOC(=O)N1CCN(CCCN2c3ccccc3Sc3ccc(C(F)(F)F)cc32)CC1 [Compound 5-3b, NDT-CO—O—[CH2CH2O]12—CH3]

>  <Assayed System>
H441GL cells

>  <Class Name>
MET

$$$$
>  <Compound>
COCCOCCOCCOCCOCCOCCOC(=O)N1CCN(CCCN2c3ccccc3Sc3ccc(Cl)cc32)CC1 [Compound 5-2a, NDP-CO—O—[CH2CH2]6—CH3]

>  <Assayed System>
H441GL cells

>  <Class Name>
NOT MET

$$$$
>  <Compound>
COCCOCCOCCOC(=O)N1CCN(CCCN2c3ccccc3Sc3ccc(Cl)cc32)CC1 [Compound 5-1a, NDP-CO—O—[CH2CH2O]3—CH3]

>  <Assayed System>
H441GL cells

>  <Class Name>
NOT MET

$$$$

Okay, now this compound:
State whether the measured Tumor Size [Fold Change from Week 3 (Mean ± SD, n = 4)] Week 9 reaches 30 Fold Change, counting equality as reaching it, for COCCOCCOCCOCCOCCOCCOCCOCCOCCOCCOCCOCCOC(=O)N1CCN(CCCN2c3ccccc3Sc3ccc(Cl)cc32)CC1 [Compound 5-3a, NDP-CO—O—[CH2CH2O]12—CH3]
NOT MET

---

test system: H441GL; assay: Cytotoxicity, sulforhodamine B (SRB) assay, H441GL; type: cell-based, Human; details: 48 h, NA indicates no activity
So basically: is IC50 under 10 µM? Then 1 (yes). Not under? Then 0 (no).

Worked set:
>  <Compound>
COCCOCCOCCN1CCN(CCCN2c3ccccc3Sc3ccc(Cl)cc32)CC1

>  <Assayed System>
H441GL

>  <Class Name>
0 (no)

$$$$
>  <Compound>
COCCOCCOCCOCCOCCOCCOC(=O)N1CCN(CCCN2c3ccccc3Sc3ccc(C(F)(F)F)cc32)CC1 [Compound 5-2b, NDT-CO—O—[CH2CH2O]6—CH3]

>  <Assayed System>
H441GL

>  <Class Name>
1 (yes)

$$$$
>  <Compound>
COCCOCCOCCOCCOCCOCCOC(=O)N1CCN(CCCN2c3ccccc3Sc3ccc(Cl)cc32)CC1 [Compound 5-2a, NDP-CO—O—[CH2CH2]6—CH3]

>  <Assayed System>
H441GL

>  <Class Name>
0 (no)

$$$$
>  <Compound>
COCCOCCOCCOCCOCCOCCN1CCN(CCCN2c3ccccc3Sc3ccc(C(F)(F)F)cc32)CC1

>  <Assayed System>
H441GL

>  <Class Name>
1 (yes)

$$$$
>  <Compound>
COCCOCCOCCOCCOCCOCCOCCOCCOCCOCCOCCOCCOCCOCCOCCOCCN1CCN(CCCN2c3ccccc3Sc3ccc(C(F)(F)F)cc32)CC1

>  <Assayed System>
H441GL

>  <Class Name>
0 (no)

$$$$

For COCCOCCOCCOCCOCCOCCOCCOCCOCCOCCOCCOCCOCCOCCOCCOCCN1CCN(CCCN2c3ccccc3Sc3ccc(Cl)cc32)CC1 , is the recorded IC50 below the cut-off of 10 µM?
0 (no)

Next compound up: COCCOCCOCCOCCOCCOCCOCC(=O)N1CCN(CCCN2c3ccccc3Sc3ccc(C(F)(F)F)cc32)CC1 [Compound 6-2b, NDT-CO—[CH2CH2O]6—CH3]
0 (no)

---

system: A549; assay: Cytotoxicity, sulforhodamine B (SRB) assay, A549; type: cell-based, Human; conditions: A549, 48 h, NA indicates no activity
Entries and their measured IC50 follow.
Reply numerically in µM, unit not repeated.

A selection of reference data follows.
>  <Compound>
COCCOCCOCCOCCOCCOCCOCCOCCOCCOCCOCCOCCN1CCN(CCCN2c3ccccc3Sc3ccc(Cl)cc32)CC1

>  <Measured Result>
11.9

$$$$
>  <Compound>
COCCOCCOCCN1CCN(CCCN2c3ccccc3Sc3ccc(Cl)cc32)CC1

>  <Measured Result>
32.5

$$$$
>  <Compound>
COCCOCCOCCOCCOCCOCCOCCOCCOCCOCCOCCOCCN1CCN(CCCN2c3ccccc3Sc3ccc(C(F)(F)F)cc32)CC1

>  <Measured Result>
11.5

$$$$

Can you look up the measured IC50 of COCCOCCOCCOCCOCCOCCN1CCN(CCCN2c3ccccc3Sc3ccc(C(F)(F)F)cc32)CC1 for me?
21.3

Next compound up: COCCOCCOCCOCCOCCOCCOCC(=O)N1CCN(CCCN2c3ccccc3Sc3ccc(C(F)(F)F)cc32)CC1 [Compound 6-2b, NDT-CO—[CH2CH2O]6—CH3]
15.5

Next compound up: COCCOCCOCCOCCOCCOCCOCCOCCOCCOCCOCCOCCOC(=O)N1CCN(CCCN2c3ccccc3Sc3ccc(C(F)(F)F)cc32)CC1 [Compound 5-3b, NDT-CO—O—[CH2CH2O]12—CH3]
2.7

Next compound up: COCCOCCOCCOCCOCCOCCN1CCN(CCCN2c3ccccc3Sc3ccc(Cl)cc32)CC1
10.9

Next compound up: COCCOCCOCCN1CCN(CCCN2c3ccccc3Sc3ccc(C(F)(F)F)cc32)CC1
26.3

Next compound up: COCCOCCOCCOC(=O)N1CCN(CCCN2c3ccccc3Sc3ccc(C(F)(F)F)cc32)CC1 [Compound 5-1b, NDT-CO—O—[CH2CH2O]3—CH3]
3.8

Next compound up: COCCOCCOCCOCCOCCOCCOCCOCCOCCOCCOCCOCCOCCOCCOCCOCCOC(=O)N1CCN(CCCN2c3ccccc3Sc3ccc(Cl)cc32)CC1 [Compound 5-4a, NDP-CO—O—[CH2CH2O]16—CH3]
6.2

Next compound up: COCCOCCOCCOCCOCCOCCOC(=O)N1CCN(CCCN2c3ccccc3Sc3ccc(Cl)cc32)CC1 [Compound 5-2a, NDP-CO—O—[CH2CH2]6—CH3]
25.2

Next compound up: COCCOCCOCCOC(=O)N1CCN(CCCN2c3ccccc3Sc3ccc(Cl)cc32)CC1 [Compound 5-1a, NDP-CO—O—[CH2CH2O]3—CH3]
15.7

Next compound up: COCCOCCOCCOCCOCCOCCOCCOCCOCCOCCOCCOCCOC(=O)N1CCN(CCCN2c3ccccc3Sc3ccc(Cl)cc32)CC1 [Compound 5-3a, NDP-CO—O—[CH2CH2O]12—CH3]
2.7

---

Entries and their measured IC50 follow.
test system: A549; assay: Cytotoxicity, sulforhodamine B (SRB) assay, A549; assay type: cell-based, Human; conditions: A549, 48 h, NA indicates no activity
Reply numerically in µM, unit not repeated.

A selection of reference data follows.
>  <Compound>
COCCOCCOCCOCCOCCOCCOC(=O)N1CCN(CCCN2c3ccccc3Sc3ccc(C(F)(F)F)cc32)CC1 [Compound 5-2b, NDT-CO—O—[CH2CH2O]6—CH3]

>  <Measured Result>
3.2

$$$$
>  <Compound>
COCCOCCOCCOCCOCCOCCOCCOCCOCCOCCOCCOCCOCC(=O)N1CCN(CCCN2c3ccccc3Sc3ccc(C(F)(F)F)cc32)CC1 [Compound 6-3b, NDT-CO—[CH2CH2O]12—CH3]

>  <Measured Result>
20.6

$$$$
>  <Compound>
COCCOCCOCCOCCOCCOCCOCCOCCOCCOCCOCCOCCOCCOCCOCCOCCN1CCN(CCCN2c3ccccc3Sc3ccc(Cl)cc32)CC1

>  <Measured Result>
20.2

$$$$

Now for the compound whose IC50 we want.
// map COCCOCCOCCOCCOCCOCCOCCOCCOCCOCCOCCOCCOCCOCCOCCOCCOC(=O)N1CCN(CCCN2c3ccccc3Sc3ccc(C(F)(F)F)cc32)CC1 [Compound 5-4b, NDT-CO—O—[CH2CH2O]16—CH3] to recorded IC50 (system: A549)
13.8
